Attribute: logP
Give only the figure.

Consider the following illustrative entries.
* CCOC(=O)C(=Cc1ccc(F)cc1)C(=O)OCC | 3.1
* CCCC[n+]1ccccc1.[Br-] | -2.69
* CC(=O)Nc1c(C)cc(O)cc1C | 0.31
* O=C(O)COc1cccc(O)c1 | 0.76
* CCc1nnc(N)o1 | -0.3
* Cc1nc([N+](=O)[O-])cn1CCO | -0.59

Q: Reported logP for COC1=C(N2CC2)C(=O)C(OC)=C(N2CC2)C1=O : what is it?
Result: 0.17

Q: Reported logP for O=Cc1ccc(OCC(=O)O)cc1 : what is it?
Result: 0.79

Q: Reported logP for O=NN(CCCl)C(=O)NC1CCC(C(=O)O)CC1 (stereo not given) : what is it?
Result: 1.68

----------
Classify as follows. Reported logP greater than or equal to -0.02: 1. Reported logP below: -1.

Reference set (3 entries):
• O=c1[nH]cc(Br)c(=O)[nH]1 = -1
• O=C(O)[C@@H]1CCCN1 = -1
• O=C1c2ccccc2C(=O)N1SC(Cl)(Cl)Cl = 1

Q: Please tell me: is the molecule COc1ccc2c(c1)N(C[C@H](C)CN(C)C)c1ccccc1S2 at or over -0.02 in terms of logP?
Result: 1

Q: Please tell me: is the molecule CC(C)c1cnc([N+](=O)[O-])n1C at or over -0.02 in terms of logP?
Result: 1

Q: Please tell me: is the molecule c1ccc2c(c1)OCCO2 at or over -0.02 in terms of logP?
Result: 1

----------
Consider the cut-off 2. If the recorded logP is strictly smaller, the label is 1 (yes); if not, the label is 0 (no).

• O=C(O)c1ccoc1 = 1 (yes)
• COC(=O)C=Cc1ccccc1 = 0 (no)
• N#CC(C#N)=NNc1ccccc1 = 0 (no)
• Clc1cc(Cl)c2c(Cl)ccc(Cl)c2c1 = 0 (no)
• CN(C)C(N(C)C)=S(I)c1ccc(Cl)cc1[N+](=O)[O-] (stereo unspecified) = 1 (yes)

Q: Strictly below 2 in logP? CC(=O)Nc1ccc(O)c(C(C)C)c1
Result: 1 (yes)

Q: Strictly below 2 in logP? CC(=O)NC(C)C(=O)NC(C)C(=O)NC(C)C(=O)NC(C)(C)C (stereo unspecified)
Result: 1 (yes)

Q: Strictly below 2 in logP? CCC(Oc1ccccc1)C(=O)N[C@@H]1C(=O)N2[C@@H]1SC(C)(C)[C@@H]2C(=O)O (stereo partly specified)
Result: 0 (no)

Q: Strictly below 2 in logP? FC(F)(F)c1nc2c(Cl)cc(Cl)c(Cl)c2[nH]1
Result: 0 (no)

Q: Strictly below 2 in logP? CCC(=O)CC
Result: 1 (yes)

----------
Consider the cut-off 3. If the recorded logP is strictly smaller, the label is satisfied; if not, the label is not satisfied.

Reference set (4 entries):
- COc1cc(NS(=O)(=O)c2ccc(N)cc2)nc(C)n1: satisfied
- CC(C)=O: satisfied
- O=C1C=C(NCCO)C(=O)c2ccccc21: satisfied
- CCCCCOc1cc(N)ccc1C(=O)O: satisfied

Please turn your attention to the following entry.
Q: Strictly below 3 in logP? NC(=O)c1ccc(O)cc1
Result: satisfied

----------
READOUT NAME: logP
Give only the figure.

- O=C(CN1CCCCC1)Nc1ccccc1Br: 2.94
- Oc1ccc(I)cc1: 2.91
- Cc1ccccc1C(=O)Nc1cccc(OC(C)C)c1: 3.66
- O=[N+]([O-])c1cccc2ccccc12: 3.19
- FC(Cl)Cl: 1.55
- CNP(=O)(OC)Oc1ccc(OC)cc1 (configuration not stated): 1.06

Q: Reported logP for O=C(O)C(c1ccc(-c2ccccc2)cc1)C(O)c1ccccc1F (configuration not stated) : what is it?
Result: 3.77

Q: Reported logP for CCOC(C)OCC : what is it?
Result: 0.84

Q: Reported logP for COC(=O)c1cccc(C(=O)O)c1 : what is it?
Result: 1.83

Q: Reported logP for CCC(C)c1cccc(C(C)C)c1O (configuration not stated) : what is it?
Result: 3.85

----------
Attribute: logP

• Oc1ccccc1-c1ccccc1 = 3.09

Q: Reported logP for Cc1ccsc1 : what is it?
Result: 2.34

Q: Reported logP for CCCc1ncc([N+](=O)[O-])n1CCNC(=S)OC : what is it?
Result: 1.94

Q: Reported logP for COc1cc2c(c(OC)c1OC)-c1ccc(=O)c(OC)cc1C(NC(C)=O)CC2 (configuration not stated) : what is it?
Result: 1

Q: Reported logP for COC1CC(OC2CCC3(C)C(CCC4C3CCC3(C)C(C5=CC(=O)OC5)C(OC(C)=O)CC43O)C2)OC(C)C1OC(C)=O (configuration not stated) : what is it?
Result: 2.95

Q: Reported logP for O=[N+]([O-])c1ccc(O)c2ncccc12 : what is it?
Result: 1.99

Q: Reported logP for CI : what is it?
Result: 1.51

Q: Reported logP for COc1cccc(C(N)=O)c1 : what is it?
Result: 0.85

Q: Reported logP for Cn1cccc1 : what is it?
Result: 1.21

----------
Classify as follows. Reported logP greater than or equal to 2: Yes. Reported logP below: No.

Reference set (2 entries):
* c1ccc(Nc2cccc3ccccc23)cc1 | Yes
* CCc1cnc(NS(=O)(=O)c2ccc(N)cc2)nc1 | No

Q: Please tell me: is the compound Oc1nc2ccccc2[nH]1 at or over 2 in terms of logP?
Result: No

Q: Please tell me: is the compound COc1cc2c(c(OC)c1OC)-c1ccc(O)c(=O)cc1[C@@H](NC(=O)C(F)(F)F)CC2 at or over 2 in terms of logP?
Result: No

Q: Please tell me: is the compound COc1cccc(OCC(=O)NNC(C)C)c1 at or over 2 in terms of logP?
Result: No

Q: Please tell me: is the compound COc1cccc(CNC(=O)C2(O)C(C)CC3C4CCC5=CC(=O)C=CC5(C)C4(F)C(O)CC32C)c1 (configuration not stated) at or over 2 in terms of logP?
Result: Yes

Q: Please tell me: is the compound COC(=O)Cn1cnc([N+](=O)[O-])n1 at or over 2 in terms of logP?
Result: No

Q: Please tell me: is the compound COC(=O)c1cccnc1 at or over 2 in terms of logP?
Result: No

Q: Please tell me: is the compound C[n+]1cccc2ccccc21.[Br-] at or over 2 in terms of logP?
Result: No

Q: Please tell me: is the compound Nc1nc(N)nc(-c2ccccc2Cl)n1 at or over 2 in terms of logP?
Result: No

Q: Please tell me: is the compound COP(=S)(OC)SCN1C(=O)c2ccccc2C1=O at or over 2 in terms of logP?
Result: Yes

Q: Please tell me: is the compound CON(C)C(=O)Nc1ccc(Br)c(Cl)c1 at or over 2 in terms of logP?
Result: Yes

Q: Please tell me: is the compound OCCCc1cccnc1 at or over 2 in terms of logP?
Result: No

Q: Please tell me: is the compound O=C(Oc1ccccc1)n1c(=O)[nH]cc(F)c1=O at or over 2 in terms of logP?
Result: No

Q: Please tell me: is the compound Cc1c(I)c(=O)n(-c2ccccc2)n1C at or over 2 in terms of logP?
Result: No

Q: Please tell me: is the compound CCN(CC)c1nc(C)cc(OP(=S)(OC)OC)n1 at or over 2 in terms of logP?
Result: Yes

Q: Please tell me: is the compound CCCCC(=O)c1ccc[nH]1 at or over 2 in terms of logP?
Result: Yes

Q: Please tell me: is the compound CNC(=O)Nc1ccc(OC)c(Cl)c1 at or over 2 in terms of logP?
Result: No

Q: Please tell me: is the compound CCCOc1cccc(C=C(C(C)=O)C(=O)OCC)c1 at or over 2 in terms of logP?
Result: Yes

Q: Please tell me: is the compound Fc1cccc(CCl)c1 at or over 2 in terms of logP?
Result: Yes

Q: Please tell me: is the compound O=C(O)c1cc(O)cc(O)c1 at or over 2 in terms of logP?
Result: No

----------
Attribute: logP
Give only the figure.

Q: Reported logP for CCOc1ccc(S(I)=C(N(C)C)N(C)C)cc1 (configuration not stated) : what is it?
Result: -0.06

Q: Reported logP for CC(=O)c1ccc(C(C)=O)cc1 : what is it?
Result: 1.34

Q: Reported logP for CC(=O)Nc1ccccc1 : what is it?
Result: 1.16

Q: Reported logP for CCC(Br)(CC)C(=O)NC(N)=O : what is it?
Result: 1.54

Q: Reported logP for N#CCCCc1ccccc1 : what is it?
Result: 2.21

Q: Reported logP for O=C(NC(CO)C(O)c1ccc([N+](=O)[O-])cc1)C(F)(F)F (configuration not stated) : what is it?
Result: 1.07

Q: Reported logP for CC(C)Oc1ccc([N+](=O)[O-])cc1 : what is it?
Result: 2.8

Q: Reported logP for CC(=O)CCC1CC1 : what is it?
Result: 1.5

Q: Reported logP for O=C(O)c1cc(Cl)ccc1[N+](=O)[O-] : what is it?
Result: 2.13

Q: Reported logP for BrCCCBr : what is it?
Result: 2.37

Q: Reported logP for CCCCC[C@H](O)/C=C/[C@H]1[C@H](O)CC(=O)[C@@H]1C/C=C\CCCC(=O)O : what is it?
Result: 2.82

Q: Reported logP for CCC(=O)OC(Cc1ccccc1)(c1ccccc1)C(C)CN(C)C (configuration not stated) : what is it?
Result: 4.18

Q: Reported logP for O=C1C=CC(=O)N1 : what is it?
Result: -0.29

Q: Reported logP for Clc1ccc(-c2cc(Cl)c(Cl)cc2Cl)cc1 : what is it?
Result: 6.67

Q: Reported logP for NNC(=O)c1ccccc1N : what is it?
Result: -0.18

Q: Reported logP for CC(C(=O)O)c1ccc(N2CC3=C(CCCC3)C2=O)cc1 (configuration not stated) : what is it?
Result: 3.07

Q: Reported logP for Cc1nc2ccccc2[nH]1 : what is it?
Result: 1.43
